Test system: pigweed
TEST PROTOCOL: Test A pre-/postemergence herbicide test
Type: in vivo, Amaranthus retroflexus
CONDITION LABEL: Preemergence, 125 g ai/ha; visual rating on 0 to 100 scale (0 no effect, 100 complete control)
Excerpt: […]
READOUT: Pigweed plant response rating
// print number alone

> print(dat)
                                   compound  value.observed
1  O=C1NCC(c2cc(F)c(F)cc2F)C1C(=O)Nc1cccc(F)c1F (stereo not shown)               0
2  O=C1NCC(c2cccc(C(F)(F)F)c2)C1C(=O)Nc1nnc(C(F)(F)F)s1 (racemic)               0
3  O=C1NCC(c2cccc(Cl)c2)C1C(=O)Nc1ccccc1F (racemic)               0

Now turn to the next compound.
Please report the measured Pigweed plant response rating for O=C1NCC(c2ccc(C(F)(F)F)cc2)C1C(=O)Nc1cccc(F)c1F (stereo not shown) 60

###

Test system: crabgrass, large
TEST PROTOCOL: Test A pre-/postemergence herbicide test
Assay type: in vivo, Digitaria sanguinalis
CONDITION LABEL: Postemergence, 500 g ai/ha; 0 to 100 scale (0 no effect, 100 complete control)
READOUT: Plant response rating, Crabgrass, Large
No unit in the answer, only the number.

Some solved cases for reference:
> print(dat)
                                   compound  value.observed
1  CC1NC(=O)C(C(=O)Nc2ccccc2C(F)(F)F)C1c1ccc(F)c(F)c1 (mixture of isomers) [Compound 9]              70
2  O=C1NCC(c2ccc(F)c(F)c2)C1C(=O)Nc1cccc(F)c1F (racemic) [Compound 101]              80

Provide measured Plant response rating, Crabgrass, Large value, entry: O=C1NCC(c2ccccc2)C1C(=O)Nc1ccc(Br)cc1F (racemic) [Compound 84] 20

Please report Plant response rating, Crabgrass, Large for the following compound: O=C1NCC(c2ccc(F)c(Cl)c2)C1C(=O)Nc1ccccc1F (stereo not shown) [Compound 60] 90

###

Test system: giant foxtail
TEST PROTOCOL: Test A pre-/postemergence herbicide test
Type: in vivo, Setaria faberii
CONDITION LABEL: preemergence, 1000 g ai/ha; 0 to 100 scale
READOUT: Plant response rating, Foxtail, Giant
Would you mind answering with just the numeric figure?

> print(dat)
                                   compound  value.observed
1  C#CCN(C(=O)C1C(=O)NCC1c1ccc(F)c(F)c1)c1ccccc1[N+](=O)[O-] (stereo not shown) [Compound 265]               0
2  O=C1NCC(c2ccc(F)c(F)c2)C1C(=O)Nc1cccc(F)c1Cl (racemic) [Compound 108]              90
3  O=C1NCC(c2cccc(-c3ccccc3F)c2)C1C(=O)Nc1ccccc1C(F)(F)F (stereo not shown) [Compound 238]              90

// moving on: another record for Plant response rating, Foxtail, Giant
Supply recorded Plant response rating, Foxtail, Giant for O=C1NCC(c2cccc(-c3ccccc3C(F)(F)F)c2)C1C(=O)Nc1ccccc1C(F)(F)F (stereo not shown) [Compound 237] here. 80

###

Catalogue of Plant response rating, Barnyardgrass values
Test system: barnyardgrass
TEST PROTOCOL: Test A pre-/postemergence herbicide test
Type: in vivo, Echinochloa crus-galli
CONDITION LABEL: 125 g ai/ha; visual rating, 0 to 100 scale, 0 no effect, 100 complete control; approximately 10 days; preemergence
Description: […]

Before answering, review these 5 worked examples.
> print(dat)
                                   compound                               readout  value.observed
1  O=C1NCC(c2cccc(C(F)F)c2)C1C(=O)Nc1ccccc1F (racemic)  Plant response rating, Barnyardgrass              80
2  COc1ccc(C2CNC(=O)C2C(=O)Nc2ccccc2F)cc1C(F)(F)F (racemic)  Plant response rating, Barnyardgrass              30
3  O=C1NCC(c2cccc(C(F)F)c2)C1C(=O)Nc1cccc(F)c1F (racemic)  Plant response rating, Barnyardgrass              90
4  O=C1NC[C@@H](c2cccc(C(F)(F)F)c2)[C@@H]1C(=O)Nc1cccc(F)c1F  Plant response rating, Barnyardgrass              30
5  O=C1NCC(c2cccc(S(F)(F)(F)(F)F)c2)C1C(=O)Nc1ccccc1C(F)(F)F (centres unmarked)  Plant response rating, Barnyardgrass              60

Write down measured Plant response rating, Barnyardgrass (barnyardgrass) for this compound. O=C1NCC(c2cccc(OC(F)F)c2)C1C(=O)Nc1cccc(F)c1F (centres unmarked) 90

Provide the reported Plant response rating, Barnyardgrass (system: barnyardgrass) for COc1cc(C2CNC(=O)C2C(=O)Nc2ccc(F)cc2F)ccc1F (racemic) 50

Name the value of Plant response rating, Barnyardgrass reported for COc1ccc(C2CNC(=O)C2C(=O)Nc2ccccc2C(F)(F)F)cc1F (racemic) when tested on barnyardgrass. 0

State the measured Plant response rating, Barnyardgrass (barnyardgrass) of Cc1cc(C2CNC(=O)C2C(=O)Nc2ccc(F)c(F)c2F)ccc1F (racemic) 90

# return Plant response rating, Barnyardgrass for Cc1ccc(C2CNC(=O)C2C(=O)Nc2ccc(F)cc2F)cc1F (racemic) , test system: barnyardgrass 80

Write down the reported Plant response rating, Barnyardgrass (system: barnyardgrass) of Cc1cccc(NC(=O)C2C(=O)NCC2c2cccc(C(F)(F)F)c2)c1F (racemic) 70

Enter measured Plant response rating, Barnyardgrass, system barnyardgrass, for the compound shown: Cc1cc(C2CNC(=O)C2C(=O)Nc2ccc(F)cc2F)ccc1F (racemic) 80

Give Plant response rating, Barnyardgrass for this entry on barnyardgrass: Cc1cc(C2CNC(=O)C2C(=O)Nc2cccc(F)c2F)ccc1F (racemic) 90

// fetch Plant response rating, Barnyardgrass; item: Cc1ccccc1NC(=O)C1C(=O)NCC1c1ccc(OC(F)F)cc1 (centres unmarked) ; system: barnyardgrass 20

###

System: galium
TEST PROTOCOL: Test A postemergence herbicide test
Assay type: in vivo, Galium aparine
CONDITION LABEL: 500 g ai/ha
READOUT: Galium plant response rating (0 to 100 scale, 0 is no effect, 100 is complete control)
Provide a numeric answer; units are not to be included.

Known Galium plant response rating (0 to 100 scale, 0 is no effect, 100 is complete control) results, listed for orientation:
> print(dat)
                                   molecule  value.observed
1  O=C1NCC(c2cccc(OC(F)F)c2)C1C(=O)Nc1ccccc1Br (centres unmarked)              40
2  CCCN1CC(c2ccc(C(F)(F)F)cc2)C(C(=O)Nc2ccccc2F)C1=O (centres unmarked)               0
3  O=C1NC[C@@H](c2cccc(C(F)(F)F)c2)[C@@H]1C(=O)Nc1cccc(F)c1F              60
4  Cc1ccc(C2CNC(=O)C2C(=O)Nc2cccc(F)c2F)cc1F (racemic)              70
5  COc1cc(C2CNC(=O)C2C(=O)Nc2ccc(F)c(F)c2F)ccc1F (racemic)               0

Please give the documented Galium plant response rating (0 to 100 scale, 0 is no effect, 100 is complete control) of O=C1NCC(c2ccc(F)cc2)C1C(=O)Nc1ccccc1OC(F)F (racemic) 60

Please look at this molecule and report its Galium plant response rating (0 to 100 scale, 0 is no effect, 100 is complete control): Cc1cc(C2CNC(=O)C2C(=O)Nc2cccc(F)c2F)ccc1F (racemic) 50

Supply Galium plant response rating (0 to 100 scale, 0 is no effect, 100 is complete control) value. Item: O=C1NCC(c2cccc(C(F)F)c2)C1C(=O)Nc1ccccc1C(F)(F)F (racemic) 60

###

Tested on: blackgrass
TEST PROTOCOL: Test D pre-/postemergence herbicide test
Type: in vivo, Alopecurus myosuroides
CONDITION LABEL: Preemergence; 250 g ai/ha; Blackgrass; scale 0 to 100
READOUT: Plant response rating

Solved entries (count: 3):
> print(dat)
                                   compound                readout  value.observed
1  O=C1NC[C@H](c2cccc(C(F)(F)F)c2)[C@H]1C(=O)Nc1ccccc1F  Plant response rating              65
2  O=C1NCC(c2ccc(F)c(F)c2)C1C(=O)Nc1ccccc1C(F)(F)F (racemic)  Plant response rating               0
3  O=C1NCC(c2ccc(F)c(C(F)(F)F)c2)C1C(=O)Nc1cccc(F)c1F (racemic)  Plant response rating              65

Now for another entry.
Please look at this compound and report its Plant response rating: O=C1NCC(c2ccc(C(F)(F)F)cc2)C1C(=O)Nc1cccc(F)c1F (racemic) 75

Numbers sourced from patent US10294202B2.
